- assay.protocol: physchem
- particulars: octanol/water
- Description: Lipophilicity, logD of the compound by shake-flask method
measured.metric: logD
Number, no unit, nothing else.

[Q] Identify the reported logD for the following entry. Nc1ccc(-c2c(C(=O)c3ccc(OCCNS(=O)(=O)O)cc3)c3ccc(O)cc3oc2=O)cc1
[A] 1.78

[Q] Identify the reported logD for the following entry. Cc1cc(C(=O)CNc2c(-c3ccc(O)cc3)c(=O)oc3cc(O)ccc23)ccc1OCCN1CCC=C(C(=O)O)C1
[A] 2.14

[Q] Identify the reported logD for the following entry. CC/C(=C(\c1ccc(O)cc1)c1ccc(OCCN(C)C)cc1)c1ccccc1
[A] 3.62

[Q] Identify the reported logD for the following entry. Nc1ccc(-c2c(C(=O)c3ccc(OCCN4CC(C(=O)O)=CCC4=O)cc3)c3ccc(O)cc3[nH]c2=O)cc1
[A] 1.86
